- Tested on: HCT116
- Method description: cell viability (CellTiter-Glo) relative to plate median (fraction of plate median); higher = more viable cells
- Assay setup: 10 µM; treatment time 24 h; reporter: TCF4/Wnt
Where a name gives a salt, the structure may show the parent alone.
The threshold is 0.9. Values of cell viability beneath it are tagged yes; values meeting or exceeding it are tagged no.

Compound: Cc1cn(-c2cc(NC(=O)c3ccc(C)c(Nc4nccc(-c5cccnc5)n4)c3)cc(C(F)(F)F)c2)cn1
Group: no

Compound: COc1cccc2cc(-c3nc([C@H]4CC[C@H](C(=O)O)CC4)n4ncnc(N)c34)[nH]c12
Group: yes

Compound: Cc1cc(C(C)Nc2ccccc2)c2nc(N3CCOCC3)cc(=O)n2c1 (stereo not drawn)
Group: no

Compound: Clc1ccc(C2(c3ccc(-c4cn[nH]c4)cc3)CCNCC2)cc1
Group: no

Compound: COc1ccc(-c2ccc3c(N4CCOCC4)nc(N4C[C@@H](C)O[C@@H](C)C4)nc3n2)cc1CO
Group: yes

Compound: OCCn1cc(-c2ccc3c(c2)CC/C3=N\O)c(-c2ccncc2)n1
Group: no

Compound: C#Cc1cccc(Nc2ncnc3cc(OCCOC)c(OCCOC)cc23)c1 [Erlotinib HCl]
Group: no

Compound: COc1ncc(-c2ccc3nccc(-c4ccnnc4)c3c2)cc1NS(=O)(=O)c1ccc(F)cc1F
Group: yes

Compound: O=C(NC[C@H](O)CO)c1ccncc1Nc1ccc(I)cc1F
Group: yes

Compound: COc1cc2nccc(Oc3ccc(NC(=O)NC4CC4)c(Cl)c3)c2cc1C(N)=O
Group: no

Compound: CCOc1cc2ncc(C#N)c(Nc3ccc(OCc4ccccn4)c(Cl)c3)c2cc1NC(=O)/C=C/CN(C)C
Group: no

Compound: CN1CCN(c2ccc3nc(-c4c(N)c5c(F)cccc5[nH]c4=O)[nH]c3c2)CC1 [Dovitinib (TKI-258)]
Group: yes

Compound: O=c1cc(N2CCOCC2)oc2c(-c3ccccc3)cccc12
Group: no

Compound: C=CC(=O)Nc1ccc2ncnc(Nc3ccc(OCc4cccc(F)c4)c(Cl)c3)c2c1
Group: no

Compound: O=C(Nc1cccc(Cl)c1)Nc1ncc(CCNc2ncnc3ccsc23)s1
Group: no

Compound: COc1cc(OC)c(/C=C/S(=O)(=O)Cc2ccc(OC)c(NCC(=O)O)c2)c(OC)c1
Group: yes

Compound: CN1CCN(c2nc(C3=C(c4c[nH]c5ccccc45)C(=O)NC3=O)c3ccccc3n2)CC1
Group: no

---

- Test system: DLD1
- Method description: TCF/Wnt firefly luciferase reporter signal relative to plate median (fraction of plate median); higher = higher Wnt reporter signal
- Assay setup: 5 µM; treatment time 24 h; reporter: 7TFP
TCF/Wnt firefly luciferase reporter signal for assorted compounds
Observable: TCF/Wnt firefly luciferase reporter signal

Compound: CN(C)CCCN1c2ccccc2Sc2ccc(Cl)cc21
Measured result: 0.928
//
Compound: C/C=C(\C)C(=O)[C@@H](C)/C=C(\C)[C@H]1O[C@@](O)([C@@](O)(CC)C(=O)N[C@@H]2C(=O)N3NCCC[C@@H]3C(=O)N(O)[C@@H](C)C(=O)N(C)[C@H](C)C(=O)N3NCCC[C@H]3C(=O)N[C@H]([C@H](C)O)C(=O)O[C@H]2C(C)C)CC[C@@H]1C
Measured result: 1.01
//
Compound: C[C@@H]1C[C@H]2O[C@@H]2/C=C\C=C\C(=O)Cc2c(Cl)c(O)cc(O)c2C(=O)O1
Measured result: 0.898
//
Compound: CC(C)(CO)C(O)C(=O)NCCCO (configuration not stated)
Measured result: 0.992
//
Compound: O=C(O)[C@@H](O)[C@H](O)[C@H](O)[C@@H](O)C(=O)O
Measured result: 1.06
//
Compound: CCC(=O)NCC[C@@H]1CCc2ccc3c(c21)CCO3
Measured result: 0.827
//
Compound: CC(C)COCC(CN(Cc1ccccc1)c1ccccc1)N1CCCC1 (configuration not stated)
Measured result: 0.901
//
Compound: COc1cc(OC)c(-c2c(OC)cc(OC)cc2OC)c(OC)c1
Measured result: 0.926
//
Compound: CCOC(=O)OC(C)OC(=O)[C@@H]1N2C(=O)[C@@H](NC(=O)[C@H](N)c3ccccc3)[C@H]2SC1(C)C (some centres not stated)
Measured result: 1.09
//
Compound: CC(C)[C@@H](C)/C=C/[C@@H](C)[C@H]1CC[C@H]2C3=CCC4CC(=O)CC[C@]4(C)[C@H]3CC[C@]12C (some centres not stated)
Measured result: 1.06
//
Compound: CC(=O)O[C@@H]1C[C@@]2(C)C(CC[C@@H]2C(C)=O)C2CCC3=CC(=O)CC[C@]3(C)C21 (some centres not stated)
Measured result: 1.02
//
Compound: CNCc1ccccc1
Measured result: 1.03
//
Compound: CC(=O)OCC1=C(C(=O)O)N2C(=O)[C@@H](NC(=O)CSc3ccncc3)[C@H]2SC1
Measured result: 0.985
//
Compound: CC1(C)O[C@@H]2C[C@H]3[C@@H]4CCC5=CC(=O)CC[C@]5(C)[C@@]4(F)[C@@H](O)C[C@]3(C)[C@]2(C(=O)CCl)O1
Measured result: 0.927
//
Compound: OCc1cccnc1
Measured result: 0.988
//
Compound: C[C@@H]1CC[C@@]23CCC4(C)[C@@](C=CC5[C@@]6(C)CC[C@H](O)C(C)(C)C6CC[C@]54C)(OC2=O)C3[C@H]1C (some centres not stated)
Measured result: 1.06
//
Compound: C[C@@H]1C[C@H]2[C@@H]3C[C@H](F)C4=CC(=O)C=C[C@]4(C)[C@@]3(F)[C@@H](O)C[C@]2(C)[C@@]1(O)C(=O)CO
Measured result: 1.02
//
Compound: C#C[C@]1(O)CC[C@H]2[C@@H]3CCC4=Cc5oncc5C[C@]4(C)[C@H]3CC[C@@]21C
Measured result: 1.04
//
Compound: C[C@]12C=CC(=O)C=C1CC[C@@H]1[C@@H]2[C@@H](O)C[C@@]2(C)[C@H]1CC[C@]2(O)C(=O)COP(=O)(O)O
Measured result: 1.04
//
Compound: C[C@]12CCC(=O)C=C1C=C[C@@H]1[C@@H]2CC[C@@]2(C)[C@H]1CC[C@@]21CCC(=O)O1
Measured result: 1.1
//
Compound: NC/C=C/C(=O)O
Measured result: 0.965
//
Compound: C[C@@H]1O[C@@H](O[C@H]2[C@H](Oc3cc(O)c4c(=O)cc(-c5ccc(O)cc5)oc4c3)O[C@H](CO)[C@@H](O)[C@@H]2O)[C@H](O)[C@H](O)[C@H]1O
Measured result: 0.989
//
Compound: COc1c(C)c2c(c(O)c1C/C=C(\C)CCC(=O)O)C(=O)OC2
Measured result: 1.04
//
Compound: COc1ccc(-c2cc(=O)c3c(O)cc(OC)c(OC)c3o2)c(OC)c1
Measured result: 0.902
//
Compound: CCCCCC1C(=O)CCC1CC(=O)O (configuration not stated)
Measured result: 1.06
//
Compound: N[C@@H](Cc1ccc(O)c(O)c1)C(=O)O
Measured result: 1.01
//
Compound: COc1ccc2c(c1)O[C@H]1c3ccc(OC)cc3OC[C@@H]21
Measured result: 0.792
//
Compound: CC(=O)O[C@@H]1CC2C(C)(C)[C@H](O)C[C@H](O)[C@@]2(C)C2CC[C@]3(C)C(=CC(=O)O[C@@H]3c3ccoc3)[C@]21C (some centres not stated)
Measured result: 1.07
//
Compound: CCCCc1nc(Cl)c(CO)n1Cc1ccc(-c2ccccc2-c2nnn[nH]2)cc1
Measured result: 1.08
//
Compound: C[C@H]1C[C@@H]2[C@H]([C@@H](O)C[C@@]3(C)[C@H]2CC[C@]3(O)C(=O)CO)[C@@]2(C)C=CC(=O)C=C12
Measured result: 0.923
//
Compound: COc1cc(O)c(C(=O)/C=C/c2ccc(O)c(OC)c2)c(OC)c1
Measured result: 0.882
//
Compound: Cc1cccc(Nc2ccccc2C(=O)O)c1C
Measured result: 0.927
//
Compound: NNCCc1ccccc1
Measured result: 1.26
//
Compound: CC(C)(C)NC[C@H](O)c1ccc(O)c(CO)c1
Measured result: 1.02
//
Compound: O=C(O)COCCN1CCN(C(c2ccccc2)c2ccc(Cl)cc2)CC1 (configuration not stated)
Measured result: 1.04
//
Compound: CCCCCC(=O)Cc1cc(O)cc(O)c1C(=O)Oc1cc(CC(=O)CCCCC)c(C(=O)O)c(OC)c1
Measured result: 1.07
//
Compound: Nc1nc2c(ncn2[C@H]2C[C@H](O)[C@@H](CO)O2)c(=O)[nH]1
Measured result: 0.989

---

- Test system: DLD1
- Method description: TCF/Wnt firefly luciferase reporter signal relative to plate median (fraction of plate median); higher = higher Wnt reporter signal
- Assay setup: 5 µM; treatment time 24 h; reporter: 7TFP
Kind request: treat 1 as inclusive, so TCF/Wnt firefly luciferase reporter signal at 1 or higher is MET, anything lower is NOT MET.

Compound: CC(=O)c1c2c(c(C)n1-c1ccccc1C(=O)O)C(=O)c1c(O)cccc1C2=O
Tested on: DLD1
Group: MET

Compound: O=C(O[C@@H]1Cc2c(O)cc(O)cc2O[C@@H]1c1ccc(O)c(O)c1)c1cc(O)c(O)c(O)c1
Tested on: DLD1
Group: MET

Compound: Nc1ccc(S(N)(=O)=O)cc1
Tested on: DLD1
Group: MET

Compound: O=C(/C=C/C=C/c1ccc2c(c1)OCO2)N1CCCCC1
Tested on: DLD1
Group: MET

Compound: C=CC(C1=CC(=O)C=CC1=O)c1ccccc1 (centres undefined)
Tested on: DLD1
Group: NOT MET

Compound: C#C[C@]1(O)CC[C@H]2[C@@H]3CCC4=CC(=O)CC[C@@H]4[C@H]3CC[C@@]21C
Tested on: DLD1
Group: NOT MET

Compound: O=c1cc(-c2ccccc2)oc2cc(O)cc(O)c12
Tested on: DLD1
Group: MET

Origin of measurements: the supplement of paper PMC6522484
